Target: ALK (Homo sapiens, UniProt Q9UM73)
Construct: The plasmid pCDNA3.1_8×His-tev-ALK (kinase domain, 1068–1410) was constructed; 8xHis (N); TEV site (N); made in house; host or cells: Expi293 cells (transient transfection)
Sequence (Q9UM73 1068-1410): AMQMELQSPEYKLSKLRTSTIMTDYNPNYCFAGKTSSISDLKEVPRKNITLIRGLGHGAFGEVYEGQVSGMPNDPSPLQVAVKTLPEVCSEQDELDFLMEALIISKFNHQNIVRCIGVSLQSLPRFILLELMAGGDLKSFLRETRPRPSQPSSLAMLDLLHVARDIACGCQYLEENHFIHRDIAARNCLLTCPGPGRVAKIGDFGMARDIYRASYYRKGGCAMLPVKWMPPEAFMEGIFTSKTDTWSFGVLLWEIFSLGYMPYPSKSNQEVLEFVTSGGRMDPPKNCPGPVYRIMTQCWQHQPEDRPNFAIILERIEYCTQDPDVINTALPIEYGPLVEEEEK
Assay: ATP hydrolysis assay (Kinase-Glo) on ALK
Format: biochemical
Settings: ALK, source data; read-out: IC50 (best-fit value)
Quantity kind: IC50
Hey, just the number and the unit after it is fine.

Reference set (2 entries):
* COc1ccccc1Nc1ncnc(Nc2ccccc2S(=O)(=O)C(C)C)n1 | 532 nM
* COc1ccc(OC)c(Nc2ncnc(Nc3ccccc3S(=O)(=O)C(C)C)n2)c1 | 19100 nM

Consider the record given below.
Identify measured IC50 corresponding to COc1ncccc1Nc1ncnc(Nc2ccccc2S(=O)(=O)C(C)C)n1 [Compound 38a]
719 nM
